Molecular target: T1, pig serum albumin (pig, UniProt P08835 25-607)
T1 construct: bought protein, amine-coupled to a CM5 chip; also called Pig SA
Experiment: SPR (Biacore 8K), albumin immobilised, 25 C, 1:1 kinetics
metric: koff

Exercise: Requested read-out: koff. Entry: INS Analog 25 (other, single-chain insulin B-L2-A-L1-VHH fusion; also called Ex. 25) FVSQHLCGSHLVEALRLVCGERGFFYTPKTGGGGGGGIVEQCCTSICSLYQLENYCGGGGGQGGGGQGGGGQGGGGQGGGGQEVQLLESGGGLVQPGGSLRLSCAASGRYIDETAVAWFRQAPGKEREFVAGIGGGVDITYYADSVKGRFTISRDNSKNTLYLQMNSLRPEDTAVYYCAARPGRPLITSKVADLYPYWGQGTLVTVSSPP
Solution: 0.011 s⁻¹
